tested on: NCI-H1703; test: relative viability (nuclei count vs DMSO), 5 days (fraction); higher = more cells survive; conditions: first compound 2.53 µM

| COMPOUND | relative viability |
| --- | --- |
| COc1nc(C)cnc1NS(=O)(=O)c1cccnc1-c1ccc(-c2nnco2)cc1 [Zibotentan] + C[C@@H](Oc1cc(-c2cnn(C3CCNCC3)c2)cnc1N)c1c(Cl)ccc(F)c1Cl [Crizotinib] (partner 1 µM) | 0.555 |
| O=c1cc(-c2cccc3c2Sc2ccccc2S3)oc(N2CCOCC2)c1 + CS(=O)(=O)N1CCN(Cc2cc3nc(-c4cccc5[nH]ncc45)nc(N4CCOCC4)c3s2)CC1 [Pictilisib] (partner 1 µM) | 0.241 |
| COc1nc(C)cnc1NS(=O)(=O)c1cccnc1-c1ccc(-c2nnco2)cc1 [Zibotentan] + C[C@]1(O)C[C@@H](c2nc(-c3ccc4ccc(-c5ccccc5)nc4c3)c3c(N)nccn32)C1 [Linsitinib] (partner 1 µM) | 0.167 |
| COc1nc(C)cnc1NS(=O)(=O)c1cccnc1-c1ccc(-c2nnco2)cc1 [Zibotentan] + CS(=O)(=O)N1CCN(Cc2cc3nc(-c4cccc5[nH]ncc45)nc(N4CCOCC4)c3s2)CC1 [Pictilisib] (partner 1 µM) | 0.252 |
| COc1nc(C)cnc1NS(=O)(=O)c1cccnc1-c1ccc(-c2nnco2)cc1 [Zibotentan] + O=C(c1cc(Cc2n[nH]c(=O)c3ccccc23)ccc1F)N1CCN(C(=O)C2CC2)CC1 [Olaparib] (partner 8 µM) | 0.292 |

###

Measured relative viability values are reported for all entries that follow.
tested on: HCC-15; assay: relative viability (nuclei count vs DMSO), 5 days (fraction); higher = more cells survive; conditions: first compound 0.01 µM

| MOLECULE | relative viability |
| --- | --- |
| O=c1cc(N2CCOCC2)oc2c(-c3cccc4c3sc3ccccc34)cccc12 + Cc1cc(Nc2cc(N3CCN(C)CC3)nc(Sc3ccc(NC(=O)C4CC4)cc3)n2)n[nH]1 [Tozasertib] (partner 0.1 µM) | 0.413 |
| O=c1cc(N2CCOCC2)oc2c(-c3cccc4c3sc3ccccc34)cccc12 + C[C@]1(O)C[C@@H](c2nc(-c3ccc4ccc(-c5ccccc5)nc4c3)c3c(N)nccn32)C1 [Linsitinib] (partner 1 µM) | 0.786 |
| O=c1cc(N2CCOCC2)oc2c(-c3cccc4c3sc3ccccc34)cccc12 + Cc1nc(Nc2ncc(C(=O)Nc3c(C)cccc3Cl)s2)cc(N2CCN(CCO)CC2)n1 [Dasatinib] (partner 0.075 µM) | 0.63 |

###

Measured relative viability values are reported for all entries that follow.
system: NCI-H2228; assay: relative viability (nuclei count vs DMSO), 5 days (fraction); higher = more cells survive; settings: first compound 0.03162 µM

| COMPOUND | TEST SYSTEM | relative viability |
| --- | --- | --- |
| O=c1cc(N2CCOCC2)oc2c(-c3cccc4c3sc3ccccc34)cccc12 + O=C(c1cc(Cc2n[nH]c(=O)c3ccccc23)ccc1F)N1CCN(C(=O)C2CC2)CC1 [Olaparib] (partner 8 µM) | NCI-H2228 | 0.654 |
| O=c1cc(N2CCOCC2)oc2c(-c3cccc4c3sc3ccccc34)cccc12 + Nc1nc2[nH]cc(CCc3ccc(C(=O)N[C@@H](CCC(=O)O)C(=O)O)cc3)c2c(=O)[nH]1 [Pemetrexed] (partner 0.2 µM) | NCI-H2228 | 0.356 |
| CCN(CC)CCCCNc1ncc2cc(-c3cc(OC)cc(OC)c3)c(NC(=O)NC(C)(C)C)nc2n1 + CS(=O)(=O)CCNCc1ccc(-c2ccc3ncnc(Nc4ccc(OCc5cccc(F)c5)c(Cl)c4)c3c2)o1 [Lapatinib] (partner 2 µM) | NCI-H2228 | 1.35 |
| O=c1cc(N2CCOCC2)oc2c(-c3cccc4c3sc3ccccc34)cccc12 + CC1(C)CCC(c2ccc(Cl)cc2)=C(CN2CCN(c3ccc(C(=O)NS(=O)(=O)c4ccc(N[C@H](CCN5CCOCC5)CSc5ccccc5)c(S(=O)(=O)C(F)(F)F)c4)cc3)CC2)C1 [Navitoclax] (partner 0.5 µM) | NCI-H2228 | 0.895 |

###

tested on: LC-2-ad; experiment: relative viability (nuclei count vs DMSO), 5 days (fraction); higher = more cells survive; conditions: first compound 0.1 µM
Measured relative viability values are reported for all entries that follow.
PROPERTY MEASURED: relative viability

| MOLECULE | TEST SYSTEM | PROPERTY MEASURED | OBS VALUE |
| --- | --- | --- | --- |
| O=c1cc(N2CCOCC2)oc2c(-c3cccc4c3sc3ccccc34)cccc12 + O=C(c1cc(Cc2n[nH]c(=O)c3ccccc23)ccc1F)N1CCN(C(=O)C2CC2)CC1 [Olaparib] (partner 8 µM) | LC-2-ad | relative viability | 0.77 |
| CCN(CC)CCCCNc1ncc2cc(-c3cc(OC)cc(OC)c3)c(NC(=O)NC(C)(C)C)nc2n1 + O=C(CCCCCCC(=O)Nc1ccccc1)NO [Vorinostat] (partner 1 µM) | LC-2-ad | relative viability | 0.76 |
| CCN(CC)CCCCNc1ncc2cc(-c3cc(OC)cc(OC)c3)c(NC(=O)NC(C)(C)C)nc2n1 + Cc1cc(Nc2cc(N3CCN(C)CC3)nc(Sc3ccc(NC(=O)C4CC4)cc3)n2)n[nH]1 [Tozasertib] (partner 0.1 µM) | LC-2-ad | relative viability | 0.433 |

###

tested on: NCI-H23; test: relative viability (nuclei count vs DMSO), 5 days (fraction); higher = more cells survive; conditions: first compound 2.53 µM
PROPERTY MEASURED: relative viability

| COMPOUND | OBS VALUE |
| --- | --- |
| COc1nc(C)cnc1NS(=O)(=O)c1cccnc1-c1ccc(-c2nnco2)cc1 [Zibotentan] + C[C@@H](Oc1cc(-c2cnn(C3CCNCC3)c2)cnc1N)c1c(Cl)ccc(F)c1Cl [Crizotinib] (partner 1 µM) | 0.593 |
| COc1nc(C)cnc1NS(=O)(=O)c1cccnc1-c1ccc(-c2nnco2)cc1 [Zibotentan] + NC(=O)Nc1cc(-c2cccc(F)c2)sc1C(=O)N[C@H]1CCCNC1 [AZD7762] (partner 0.2 µM) | 0.26 |
| COc1nc(C)cnc1NS(=O)(=O)c1cccnc1-c1ccc(-c2nnco2)cc1 [Zibotentan] + CC(C)C[C@H](NC(=O)[C@H](Cc1ccccc1)NC(=O)c1cnccn1)B(O)O [Bortezomib] (partner 0.002 µM) | 1.29 |
| O=c1cc(-c2cccc3c2Sc2ccccc2S3)oc(N2CCOCC2)c1 + COc1cccc2cc(-c3nc([C@H]4CC[C@H](C(=O)O)CC4)n4ncnc(N)c34)[nH]c12 [OSI-027] (partner 0.5 µM) | 0.54 |

###

tested on: NCI-H2009; test: relative viability (nuclei count vs DMSO), 5 days (fraction); higher = more cells survive; conditions: first compound 0.6325 µM
Measured relative viability values are reported for all entries that follow.
PROPERTY MEASURED: relative viability

| COMPOUND | TEST SYSTEM | OBS VALUE |
| --- | --- | --- |
| COCC1(CO)C(=O)C2CCN1CC2 (stereo not given) [PRIMA-1MET] + COc1cccc2cc(-c3nc([C@H]4CC[C@H](C(=O)O)CC4)n4ncnc(N)c34)[nH]c12 [OSI-027] (partner 0.5 µM) | NCI-H2009 | 0.578 |
| COCC1(CO)C(=O)C2CCN1CC2 (stereo not given) [PRIMA-1MET] + CS(=O)(=O)N1CCN(Cc2cc3nc(-c4cccc5[nH]ncc45)nc(N4CCOCC4)c3s2)CC1 [Pictilisib] (partner 1 µM) | NCI-H2009 | 0.68 |
| COCC1(CO)C(=O)C2CCN1CC2 (stereo not given) [PRIMA-1MET] + CC1(C)CCC(c2ccc(Cl)cc2)=C(CN2CCN(c3ccc(C(=O)NS(=O)(=O)c4ccc(N[C@H](CCN5CCOCC5)CSc5ccccc5)c(S(=O)(=O)C(F)(F)F)c4)cc3)CC2)C1 [Navitoclax] (partner 0.5 µM) | NCI-H2009 | 1.23 |
| COCC1(CO)C(=O)C2CCN1CC2 (stereo not given) [PRIMA-1MET] + Cc1cc(Nc2cc(N3CCN(C)CC3)nc(Sc3ccc(NC(=O)C4CC4)cc3)n2)n[nH]1 [Tozasertib] (partner 0.1 µM) | NCI-H2009 | 0.742 |
| COCC1(CO)C(=O)C2CCN1CC2 (stereo not given) [PRIMA-1MET] + N=C(N)NC(=N)NCCc1ccccc1 [Phenformin] (partner 250 µM) | NCI-H2009 | 0.456 |

###

test system: NCI-H2228; test: relative viability (nuclei count vs DMSO), 5 days (fraction); higher = more cells survive; details: first compound 2.53 µM

| COMPOUND | TEST SYSTEM | relative viability |
| --- | --- | --- |
| O=c1cc(-c2cccc3c2Sc2ccccc2S3)oc(N2CCOCC2)c1 + CS(=O)(=O)N1CCN(Cc2cc3nc(-c4cccc5[nH]ncc45)nc(N4CCOCC4)c3s2)CC1 [Pictilisib] (partner 1 µM) | NCI-H2228 | 0.484 |
| O=c1cc(-c2cccc3c2Sc2ccccc2S3)oc(N2CCOCC2)c1 + O=C(c1cc(Cc2n[nH]c(=O)c3ccccc23)ccc1F)N1CCN(C(=O)C2CC2)CC1 [Olaparib] (partner 8 µM) | NCI-H2228 | 0.83 |
| COc1nc(C)cnc1NS(=O)(=O)c1cccnc1-c1ccc(-c2nnco2)cc1 [Zibotentan] + Cc1cc(Nc2cc(N3CCN(C)CC3)nc(Sc3ccc(NC(=O)C4CC4)cc3)n2)n[nH]1 [Tozasertib] (partner 0.1 µM) | NCI-H2228 | 0.258 |
| O=c1cc(-c2cccc3c2Sc2ccccc2S3)oc(N2CCOCC2)c1 + C[C@@H](Oc1cc(-c2cnn(C3CCNCC3)c2)cnc1N)c1c(Cl)ccc(F)c1Cl [Crizotinib] (partner 1 µM) | NCI-H2228 | 0.394 |
| O=c1cc(-c2cccc3c2Sc2ccccc2S3)oc(N2CCOCC2)c1 + CCNC(=O)c1noc(-c2cc(C(C)C)c(O)cc2O)c1-c1ccc(CN2CCOCC2)cc1 [Luminespib] (partner 0.01 µM) | NCI-H2228 | 0.146 |
| COc1nc(C)cnc1NS(=O)(=O)c1cccnc1-c1ccc(-c2nnco2)cc1 [Zibotentan] + O=C(c1cc(Cc2n[nH]c(=O)c3ccccc23)ccc1F)N1CCN(C(=O)C2CC2)CC1 [Olaparib] (partner 8 µM) | NCI-H2228 | 0.924 |
| COc1nc(C)cnc1NS(=O)(=O)c1cccnc1-c1ccc(-c2nnco2)cc1 [Zibotentan] + CC(C)C[C@H](NC(=O)[C@H](Cc1ccccc1)NC(=O)c1cnccn1)B(O)O [Bortezomib] (partner 0.002 µM) | NCI-H2228 | 1.07 |
| O=c1cc(-c2cccc3c2Sc2ccccc2S3)oc(N2CCOCC2)c1 + C[C@]1(O)C[C@@H](c2nc(-c3ccc4ccc(-c5ccccc5)nc4c3)c3c(N)nccn32)C1 [Linsitinib] (partner 1 µM) | NCI-H2228 | 0.592 |
| O=c1cc(-c2cccc3c2Sc2ccccc2S3)oc(N2CCOCC2)c1 + CC(C)C[C@H](NC(=O)[C@H](Cc1ccccc1)NC(=O)c1cnccn1)B(O)O [Bortezomib] (partner 0.002 µM) | NCI-H2228 | 0.982 |
| O=c1cc(-c2cccc3c2Sc2ccccc2S3)oc(N2CCOCC2)c1 + Cc1cc(Nc2cc(N3CCN(C)CC3)nc(Sc3ccc(NC(=O)C4CC4)cc3)n2)n[nH]1 [Tozasertib] (partner 0.1 µM) | NCI-H2228 | 0.163 |
| COc1nc(C)cnc1NS(=O)(=O)c1cccnc1-c1ccc(-c2nnco2)cc1 [Zibotentan] + COc1cc2c(Oc3ccc(NC(=O)C4(C(=O)Nc5ccc(F)cc5)CC4)cc3F)ccnc2cc1OCCCN1CCOCC1 [Foretinib] (partner 0.25 µM) | NCI-H2228 | 0.801 |
